Each entry below carries its reported C0.
Assay: Initial plasma concentration in mouse at 3 mg/kg, iv by LC-MS/MS method
Type: ADME, organism-based
Your answer is read as ng/mL, so omit the unit and give the number.

CHEMICAL STRING: CC(=O)N[C@H]1[C@H](Oc2cccc(C(F)(F)F)c2-c2ccc(F)cc2)O[C@H](CO)[C@H](O)[C@@H]1O
C0 (ng/mL): 4430

// switching to the query molecule
Task: Please look up its C0: "CC(=O)N[C@H]1[C@H](Oc2cccc(C(F)(F)F)c2-c2ccc(F)c(F)c2)O[C@H](CO)[C@H](O)[C@@H]1O"
Output: 3190

---

Test: Half life in mouse at 10 mg/kg, po by LC-MS/MS method
Format: ADME, organism-based
Conditions: in vivo
Each entry below carries its reported half-life.

CHEMICAL STRING: CC(=O)N[C@H]1[C@H](Oc2cccc(C(F)(F)F)c2-c2ccc(F)c(F)c2)O[C@H](CO)[C@H](O)[C@@H]1O
half-life: 1.8 h

Task: Please look up its half-life: "CC(=O)N[C@H]1[C@H](Oc2cccc(C(F)(F)F)c2-c2ccc(F)cc2)O[C@H](CO)[C@H](O)[C@@H]1O"
Output: 1.92 h

---

Tested on: FmlH (Escherichia coli)
Experiment: Inhibition of C-terminal 6His-tagged biotinylated FmIH (Escherichia coli CFT073) expressed in Escherichia coli C600 cells incubated for 1 hr
READOUT LABEL: IC50 (µM)
Your answer is read as µM, so omit the unit and give the number.

Example molecules with recorded IC50:
CHEMICAL STRING: CC(=O)N[C@H]1[C@H](Oc2cccc(C(F)(F)F)c2-c2cccc(N(C)S(=O)(=O)O)c2)O[C@H](CO)[C@H](O)[C@@H]1O
IC50, µM: 2
--
CHEMICAL STRING: CS(=O)(=O)Nc1cccc(-c2ccccc2C[C@@H]2O[C@H](CO)[C@H](O)[C@H](O)[C@H]2F)c1
IC50, µM: 7.3
--
CHEMICAL STRING: COc1cc(F)cc(-c2c(O[C@@H]3O[C@H](CO)[C@H](O)[C@H](O)[C@H]3NC(C)=O)cccc2C(F)(F)F)c1
IC50, µM: 6

Task: Please look up its IC50: "CC(=O)N[C@H]1[C@H](Oc2cccc(C(F)(F)F)c2-c2cc(F)cc(C#N)c2)O[C@H](CO)[C@H](O)[C@@H]1O"
Output: 2
